# AC50 per record follows
Target: cGMP-inhibited 3',5'-cyclic phosphodiesterase 3A (Homo sapiens, UniProt Q14432); also: assay procedure not described here
Sequence (Q14432 whole entry): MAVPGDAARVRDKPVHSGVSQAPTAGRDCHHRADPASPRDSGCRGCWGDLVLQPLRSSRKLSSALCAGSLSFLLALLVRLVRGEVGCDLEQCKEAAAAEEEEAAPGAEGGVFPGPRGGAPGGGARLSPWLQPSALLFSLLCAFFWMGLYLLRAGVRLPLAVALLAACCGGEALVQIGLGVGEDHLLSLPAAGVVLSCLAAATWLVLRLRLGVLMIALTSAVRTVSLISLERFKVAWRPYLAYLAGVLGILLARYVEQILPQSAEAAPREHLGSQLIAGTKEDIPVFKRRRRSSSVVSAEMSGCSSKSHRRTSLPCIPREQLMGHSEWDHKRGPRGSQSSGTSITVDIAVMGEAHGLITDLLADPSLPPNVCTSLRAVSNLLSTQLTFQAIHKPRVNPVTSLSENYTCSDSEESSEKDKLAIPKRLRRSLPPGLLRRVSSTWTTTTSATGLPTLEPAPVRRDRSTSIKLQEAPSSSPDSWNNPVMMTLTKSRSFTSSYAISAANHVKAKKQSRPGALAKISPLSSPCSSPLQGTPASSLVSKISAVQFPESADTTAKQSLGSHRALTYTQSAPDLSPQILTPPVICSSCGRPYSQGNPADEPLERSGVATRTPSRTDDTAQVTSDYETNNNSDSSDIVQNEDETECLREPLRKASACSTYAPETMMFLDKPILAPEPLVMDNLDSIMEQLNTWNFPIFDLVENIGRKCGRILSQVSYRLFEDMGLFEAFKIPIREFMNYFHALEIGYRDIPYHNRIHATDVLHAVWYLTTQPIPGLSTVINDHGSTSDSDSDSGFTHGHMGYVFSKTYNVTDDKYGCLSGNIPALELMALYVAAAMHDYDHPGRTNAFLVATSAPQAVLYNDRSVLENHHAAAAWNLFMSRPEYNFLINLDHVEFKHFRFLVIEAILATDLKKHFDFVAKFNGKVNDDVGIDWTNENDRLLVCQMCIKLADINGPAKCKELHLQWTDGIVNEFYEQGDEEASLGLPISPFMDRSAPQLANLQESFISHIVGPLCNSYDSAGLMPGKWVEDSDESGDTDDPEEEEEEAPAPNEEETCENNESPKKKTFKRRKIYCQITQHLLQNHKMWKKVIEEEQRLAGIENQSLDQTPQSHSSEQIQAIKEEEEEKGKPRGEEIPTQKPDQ
Type: functional

molecule	AC50
CCc1oc2ccccc2c1C(=O)c1cc(Br)c(O)c(Br)c1	9.4 µM
CC1(C)S[C@@H]2[C@H](NC(=O)[C@H](N)c3ccc(O)cc3)C(=O)N2[C@H]1C(=O)O	> 30 µM
O=C(Nc1nc(-c2cc(Cl)cs2)c(N2CCN(C3CCCCC3)CC2)s1)c1cnc(N2CCC(C(=O)O)CC2)c(Cl)c1	> 10 µM
CN(C)c1cc(NC(=O)CNC(C)(C)C)c(O)c2c1C[C@H]1C[C@H]3[C@H](N(C)C)C(O)=C(C(N)=O)C(=O)[C@@]3(O)C(O)=C1C2=O	> 30 µM
N=C(N)NCCCCCCC(=O)NC(O)C(=O)NCCCCNCCCN (stereo unspecified)	> 30 µM
C=C(C)[C@@H]1CCC(C)=C[C@H]1c1c(O)cc(CCCCC)cc1O	25 µM
